Known TGI of a selection of compounds
# Test system: HT29 cells (colorectal adenocarcinoma)
# assay.name: cells
# test.context: HT29; total cell growth inhibition; 72 hours; SRB
experimental.endpoint: TGI (Molar)

compound	measurement.target	experimental.endpoint	lt.gt.eq	numeric.result
COc1c(C)cc2c(c1O)[C@@H]1[C@@H]3[C@@H]4SC[C@]5(N[C@@H](CO)Cc6c5[nH]c5ccccc65)C(=O)OC[C@@H](c5c6c(c(C)c(OC(C)=O)c54)OCO6)N3[C@@H](C#N)[C@H](C2)N1C [Compound 3-R]	HT29 cells (colorectal adenocarcinoma)	TGI	>	1.26E−07
COc1c(C)cc2c(c1O)[C@@H]1[C@@H]3[C@@H]4SC[C@]5(N[C@H](C(=O)O)Cc6c5[nH]c5ccccc65)C(=O)OC[C@@H](c5c6c(c(C)c(OC(C)=O)c54)OCO6)N3[C@@H](C#N)[C@H](C2)N1C [Compound 14-S, reference compound]	HT29 cells (colorectal adenocarcinoma)	TGI	>	1.24E−07
COc1ccc2[nH]c3c(c2c1)C[C@H](C(=O)O)N[C@]31CS[C@@H]2c3c(OC(C)=O)c(C)c4c(c3[C@H](COC1=O)N1[C@@H]2[C@H]2c3c(cc(C)c(OC)c3O)C[C@@H]([C@@H]1C#N)N2C)OCO4 [Compound 28-R, reference compound]	HT29 cells (colorectal adenocarcinoma)	TGI	=	3.34E−08
COc1c(C)cc2c(c1O)[C@@H]1[C@@H]3[C@@H]4SC[C@]5(N[C@H](CN)Cc6c5[nH]c5ccccc65)C(=O)OC[C@@H](c5c6c(c(C)c(OC(C)=O)c54)OCO6)N3[C@@H](C#N)[C@H](C2)N1C [Compound 11-S]	HT29 cells (colorectal adenocarcinoma)	TGI	>	1.26E−07
COc1ccc2[nH]c3c(c2c1)C[C@@H](CN)N[C@]31CS[C@@H]2c3c(OC(C)=O)c(C)c4c(c3[C@H](COC1=O)N1[C@@H]2[C@H]2c3c(cc(C)c(OC)c3O)C[C@@H]([C@@H]1C#N)N2C)OCO4 [Compound 26-S]	HT29 cells (colorectal adenocarcinoma)	TGI	=	3.16E−09
COc1c(C)cc2c(c1O)[C@@H]1[C@@H]3[C@@H]4SC[C@]5(N[C@H](C)Cc6c5[nH]c5ccccc65)C(=O)OC[C@@H](c5c6c(c(C)c(OC(C)=O)c54)OCO6)N3[C@@H](C#N)[C@H](C2)N1C [A, reference compound]	HT29 cells (colorectal adenocarcinoma)	TGI	=	8.36E−09
C=CCOC(=O)NC[C@H]1Cc2c([nH]c3ccccc23)[C@@]2(CS[C@@H]3c4c(OC(C)=O)c(C)c5c(c4[C@H](COC2=O)N2[C@@H]3[C@H]3c4c(cc(C)c(OC)c4O)C[C@@H]([C@@H]2C#N)N3C)OCO5)N1 [Compound 10-R]	HT29 cells (colorectal adenocarcinoma)	TGI	>	1.14E−07
COc1ccc2[nH]c3c(c2c1)C[C@@H](C(=O)O)N[C@]31CS[C@@H]2c3c(OC(C)=O)c(C)c4c(c3[C@H](COC1=O)N1[C@@H]2[C@H]2c3c(cc(C)c(OC)c3O)C[C@@H]([C@@H]1C#N)N2C)OCO4 [Compound 28-S, reference compound]	HT29 cells (colorectal adenocarcinoma)	TGI	=	3.46E−07
COc1c(C)cc2c(c1O)[C@@H]1[C@@H]3[C@@H]4SC[C@]5(N[C@@H](C)Cc6c5[nH]c5ccccc65)C(=O)OC[C@@H](c5c6c(c(C)c(OC(C)=O)c54)OCO6)N3[C@@H](C#N)[C@H](C2)N1C [B, reference compound]	HT29 cells (colorectal adenocarcinoma)	TGI	=	9.13E−09
COc1c(C)cc2c(c1O)[C@@H]1[C@@H]3[C@@H]4SC[C@]5(N[C@H](C)Cc6c5[nH]c5ccccc65)C(=O)OC[C@@H](c5c6c(c(C)c(OC(C)=O)c54)OCO6)N3[C@@H](O)[C@H](C2)N1C [Compound C]	HT29 cells (colorectal adenocarcinoma)	TGI	=	2.34E−08
COc1ccc2[nH]c3c(c2c1)C[C@H](CN)N[C@]31CS[C@@H]2c3c(OC(C)=O)c(C)c4c(c3[C@H](COC1=O)N1[C@@H]2[C@H]2c3c(cc(C)c(OC)c3O)C[C@@H]([C@@H]1C#N)N2C)OCO4 [Compound 26-R]	HT29 cells (colorectal adenocarcinoma)	TGI	=	1.58E−09
COc1c(C)cc2c(c1O)[C@@H]1[C@@H]3[C@@H]4SC[C@]5(N[C@H](CO)Cc6c5oc5ccccc65)C(=O)OC[C@@H](c5c6c(c(C)c(OC(C)=O)c54)OCO6)N3[C@@H](C#N)[C@H](C2)N1C [Compound 38-S]	HT29 cells (colorectal adenocarcinoma)	TGI	=	7.05E−09
COc1c(C)cc2c(c1O)[C@@H]1[C@@H]3[C@@H]4SC[C@]5(N[C@H](COC(C)=O)Cc6c5[nH]c5ccccc65)C(=O)OC[C@@H](c5c6c(c(C)c(OC(C)=O)c54)OCO6)N3[C@@H](C#N)[C@H](C2)N1C [Compound 3a-S]	HT29 cells (colorectal adenocarcinoma)	TGI	=	3.23E−09
C=CCOC(=O)NC[C@H]1Cc2c([nH]c3ccc(OC)cc23)[C@@]2(CS[C@@H]3c4c(OC(C)=O)c(C)c5c(c4[C@H](COC2=O)N2[C@@H]3[C@H]3c4c(cc(C)c(OC)c4O)C[C@@H]([C@@H]2C#N)N3C)OCO5)N1 [Compound 25-R]	HT29 cells (colorectal adenocarcinoma)	TGI	=	2.76E−09
C=CCOC(=O)NC[C@@H]1Cc2c([nH]c3ccc(OC)cc23)[C@@]2(CS[C@@H]3c4c(OC(C)=O)c(C)c5c(c4[C@H](COC2=O)N2[C@@H]3[C@H]3c4c(cc(C)c(OC)c4O)C[C@@H]([C@@H]2C#N)N3C)OCO5)N1 [Compound 25-S]	HT29 cells (colorectal adenocarcinoma)	TGI	=	7.72E−09
COc1ccc2[nH]c3c(c2c1)C[C@@H](CO)N[C@]31CS[C@@H]2c3c(OC(C)=O)c(C)c4c(c3[C@H](COC1=O)N1[C@@H]2[C@H]2c3c(cc(C)c(OC)c3O)C[C@@H]([C@@H]1C#N)N2C)OCO4 [Compound 18-S]	HT29 cells (colorectal adenocarcinoma)	TGI	=	1.34E−09
